Data credit: patent US20130273029A1

Target: Human HER3, endogenous, on human cancer cell lines (SK-Br-3, MCF7, BT-474) (human, UniProt P21860 20-1342)
Sequence (P21860 20-1342): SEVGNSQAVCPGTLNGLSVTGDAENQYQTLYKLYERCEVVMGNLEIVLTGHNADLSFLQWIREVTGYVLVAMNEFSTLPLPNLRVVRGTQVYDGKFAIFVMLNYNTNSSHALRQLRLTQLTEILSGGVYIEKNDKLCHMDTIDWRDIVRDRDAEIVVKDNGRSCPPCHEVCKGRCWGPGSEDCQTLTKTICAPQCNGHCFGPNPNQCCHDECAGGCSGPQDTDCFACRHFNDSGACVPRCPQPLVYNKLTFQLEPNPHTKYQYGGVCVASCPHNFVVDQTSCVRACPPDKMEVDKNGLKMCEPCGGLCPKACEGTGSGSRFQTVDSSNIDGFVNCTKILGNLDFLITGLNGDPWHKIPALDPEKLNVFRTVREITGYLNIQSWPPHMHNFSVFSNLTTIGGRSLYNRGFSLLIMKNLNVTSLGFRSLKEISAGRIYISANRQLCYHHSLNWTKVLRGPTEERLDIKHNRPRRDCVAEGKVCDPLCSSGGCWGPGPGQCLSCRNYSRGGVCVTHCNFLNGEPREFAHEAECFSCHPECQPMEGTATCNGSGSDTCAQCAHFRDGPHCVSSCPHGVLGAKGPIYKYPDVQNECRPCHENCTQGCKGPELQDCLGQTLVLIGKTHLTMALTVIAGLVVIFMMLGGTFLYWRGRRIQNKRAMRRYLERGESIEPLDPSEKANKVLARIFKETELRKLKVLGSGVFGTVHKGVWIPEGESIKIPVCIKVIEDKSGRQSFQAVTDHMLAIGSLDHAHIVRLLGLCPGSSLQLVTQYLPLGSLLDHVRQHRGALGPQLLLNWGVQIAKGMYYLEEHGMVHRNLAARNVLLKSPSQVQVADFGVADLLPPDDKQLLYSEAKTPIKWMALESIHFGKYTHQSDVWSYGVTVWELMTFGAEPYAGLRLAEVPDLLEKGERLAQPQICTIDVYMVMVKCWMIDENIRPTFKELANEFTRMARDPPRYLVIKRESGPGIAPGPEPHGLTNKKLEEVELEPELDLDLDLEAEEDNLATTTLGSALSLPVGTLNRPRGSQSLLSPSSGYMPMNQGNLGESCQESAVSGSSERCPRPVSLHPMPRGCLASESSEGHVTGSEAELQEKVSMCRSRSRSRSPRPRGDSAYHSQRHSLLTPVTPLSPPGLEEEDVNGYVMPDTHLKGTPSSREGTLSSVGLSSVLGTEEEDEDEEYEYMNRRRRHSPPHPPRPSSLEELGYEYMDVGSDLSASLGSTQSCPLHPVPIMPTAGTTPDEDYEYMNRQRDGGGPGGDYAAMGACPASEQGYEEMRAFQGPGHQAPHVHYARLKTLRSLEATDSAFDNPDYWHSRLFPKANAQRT
Experiment: cell-based or functional assay
outcomeMeasure: SK-Br-3 pAkt (S473) % inhibition (%)
Numbers only, in %.

As a guide, the following entries are already answered.
>>> quantitativeresult("MOR13754 (antibody, human IgG1, kappa, V domains shown, tested as IgG) VH: QVQLVQSGAEVKKPGESLKISCKGSGYSFTSYWVAWVRQMPGKGLEWMGIIYPGGSDTIYSPSFQGQVTISADKSISTAYLQWSSLKASDTAMYYCARVHIIQPPSAWSYNAMDVWGQGTLVTVSS VL: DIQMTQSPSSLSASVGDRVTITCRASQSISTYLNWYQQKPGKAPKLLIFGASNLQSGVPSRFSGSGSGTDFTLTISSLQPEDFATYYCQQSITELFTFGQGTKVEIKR")
84
>>> quantitativeresult("MOR13871 (antibody, human IgG1, kappa, V domains shown, tested as IgG) VH: QVQLVQSGAEVKKPGESLKISCKGSGYSFSNYWIAWVRQMPGKGLEWMGIIYPGSSDTIYSPSFQGQVTISADKSISTAYLQWSSLKASDTAMYYCARVHIIQPPSAWSYNAMDVWGQGTLVTVSS VL: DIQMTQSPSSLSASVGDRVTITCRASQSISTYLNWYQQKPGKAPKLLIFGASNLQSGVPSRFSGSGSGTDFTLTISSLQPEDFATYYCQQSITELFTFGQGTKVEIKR")
93
>>> quantitativeresult("MOR13767 (antibody, human IgG1, kappa, V domains shown, tested as IgG) VH: QVQLVQSGAEVKKPGESLKISCKGSGYSFTTSWVAWVRQMPGKGLEWMGIIYPGQSDTIYSPSFQGQVTISADKSISTAYLQWSSLKASDTAMYYCARVHIIQPPSAWSYNAMDVWGQGTLVTVSS VL: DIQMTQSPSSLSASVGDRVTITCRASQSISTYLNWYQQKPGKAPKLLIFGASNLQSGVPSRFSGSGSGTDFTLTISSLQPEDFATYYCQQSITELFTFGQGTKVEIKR")
89
>>> quantitativeresult("MOR13758 (antibody, human IgG1, kappa, V domains shown, tested as IgG) VH: QVQLVQSGAEVKKPGESLKISCKGSGYSFTLYWVAWVRQMPGKGLEWMGIIYPGQSDTIYSPSFQGQVTISADKSISTAYLQWSSLKASDTAMYYCARVHIIQPPSAWSYNAMDVWGQGTLVTVSS VL: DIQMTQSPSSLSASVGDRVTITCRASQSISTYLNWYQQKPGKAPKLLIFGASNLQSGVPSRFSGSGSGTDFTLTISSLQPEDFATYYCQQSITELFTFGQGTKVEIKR")
90

# next binder below
Kindly note the recorded SK-Br-3 pAkt (S473) % inhibition for MOR13759 (antibody, human IgG1, kappa, V domains shown, tested as IgG) VH: QVQLVQSGAEVKKPGESLKISCKGSGYSFTTTWVAWVRQMPGKGLEWMGIIYPGLSDTIYSPSFQGQVTISADKSISTAYLQWSSLKASDTAMYYCARVHIIQPPSAWSYNAMDVWGQGTLVTVSS VL: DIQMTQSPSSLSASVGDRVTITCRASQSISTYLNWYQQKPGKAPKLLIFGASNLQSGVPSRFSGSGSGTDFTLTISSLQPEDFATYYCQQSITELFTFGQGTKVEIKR , which is 91
